- System: UO-31 renal
- Experiment: NCI-60 one-dose screen, 48 h
- Measurement parameters: 10 µM unless noted
About 83,000 compounds went through this panel and 20% of them were active in at least one assay; those are over-represented in the sample as a whole. Calls of active or inactive are those of the source. How the source made its calls: active means growth percent below 10; inactive means the rest.
Give one outcome, nothing more. List: active, inactive

Some entries whose results are on file:
| Compound | Class name |
| --- | --- |
| Cc1ccccc1Nc1n[nH]c(Cc2ccccc2)n1 | inactive |
| CCOCCNc1ccc(S(=O)(=O)c2ccc(N)cc2)cc1N | inactive |
| c1ccc2oc(-c3cnc4nonc4n3)cc2c1 | inactive |
| COc1cccc(-c2nc3sccn3c2-c2ccnc(NCCN3CCCN(C)S3(=O)=O)n2)c1 | inactive |
| CCS(=O)(=O)Nc1cccc(Nc2c3cccc(C)c3nc3c(C)cccc23)c1OC | inactive |

Write down the call the test reported for this compound. Item: Cc1ccccc1NC(=O)c1sc2nc3c(cc2c1N)C(=O)CCC3
inactive

Write down the call the test reported for this compound. Item: Clc1ccc(Cl)c(N=Cc2ccc3c(c2)OCO3)c1
inactive

Write down the call the test reported for this compound. Item: Cc1cc([N+](=O)[O-])c(C)cc1N
inactive

Write down the call the test reported for this compound. Item: Cc1ccsc1C(=O)CC(=O)C(F)(F)C(F)(F)C(F)(F)F
inactive
